# study_target: T1, Mouse CLDN18 A2.1 (mouse, UniProt P56857 10-264)
# T1 construct: on transfected HEK293-6E cells; also called Mouse CLDN18 2.1; mouse CLDN18.2 ortholog
# T1 chain: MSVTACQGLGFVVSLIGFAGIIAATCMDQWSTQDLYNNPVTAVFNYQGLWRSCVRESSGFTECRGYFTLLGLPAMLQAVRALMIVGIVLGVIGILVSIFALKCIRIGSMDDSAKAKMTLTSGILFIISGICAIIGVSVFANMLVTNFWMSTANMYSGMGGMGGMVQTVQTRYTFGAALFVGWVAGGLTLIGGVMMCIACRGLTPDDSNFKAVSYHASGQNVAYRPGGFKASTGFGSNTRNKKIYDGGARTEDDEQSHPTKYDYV
# method_notes: flow cytometry, HEK293-6E + mouse CLDN18, 4PL fit
Kindly state Bmax for each of the entries shown.
# output: bare number, no unit

Hello, please tell me recorded Bmax for this one: v37407 (antibody, human IgG1, V domains shown, human IgG1-based monoclonal antibody; also called H4-L4) VH: QVQLVESGGGLVQPGGSLRLSCSVSGIDLSSNPMIWVRQAPGKGLEYIGIIDTDGSTYYADWAKGRFTISKDSTTVYLQMNSLRAEDTAVYYCARRLHGSSNGYYDDLWGQGTLVTVSS VL: DGQMTQSPSSVSASVGDRVTITCQASQSIYSYLSWYQQKPGQRPKLLIYKASTLASGVPSRFSGSGSGTDFTLTISSVQPEDFATYYCQQGYTVTNVDKNTFGGGTKVEIK
1540

Hello, please tell me recorded Bmax for this one: v35777 (antibody, human IgG1, V domains shown, also called parental rabbit chimeric; rabbit-human chimeric IgG1/kappa anti-CLDN18.2) VH: QSLEESGGRLVTPGTPLTLTCTVSGIDLSSNPMIWVRQAPGKGLQYIGIIDTDGSTYYASWAKGRFTGSKTSTTVDLKITSPTTEDTATYFCARRLHGSSNGYYDDLWGQGTLVTISS VL: DGVMTQTPSSVSAAVGGTVTIKCQASQSIYSYLSWYQQKPGQRPKLLIYKASTLASGVPSRFKGSGSGTEFTLTISGVQCDDAATYYCQQGYTVTNVDKNTFGGGTEVVVK
1640

Hello, please tell me recorded Bmax for this one: v37408 (antibody, human IgG1, V domains shown, human IgG1-based monoclonal antibody; also called H4-L2) VH: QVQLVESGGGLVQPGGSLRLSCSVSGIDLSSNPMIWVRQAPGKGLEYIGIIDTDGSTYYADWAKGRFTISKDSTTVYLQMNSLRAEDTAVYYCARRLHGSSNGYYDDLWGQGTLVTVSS VL: DGQMTQSPSSVSASVGDRVTITCQASQSIYSYLSWYQQKPGQRPKLLIYKASTLASGVPSRFSGSGSGTDFTLTISSVQPEDAATYYCQQGYTVTNVDKNTFGGGTKVEVK
1920
